CONDITIONS: in n-butyl acetate, 293.15 K
OUTCOME_MEASURE: solubility (mole fraction)

INSERT INTO results (chemical_string, outcome_measure, readout_value) VALUES
  ('CCC[C@@H]1CC(=O)N([C@@H](CC)C(N)=O)C1', 'solubility (mole fraction)', 0.0577);

----------
CONDITIONS: in n-heptane, 278.15 K
OUTCOME_MEASURE: solubility (mole fraction)

INSERT INTO assay_data (chemical_string, readout_value) VALUES
  ('CCC[C@@H]1CC(=O)N([C@@H](CC)C(N)=O)C1', '1.02e-05');

----------
CONDITIONS: in n-heptane, 303.15 K
OUTCOME_MEASURE: solubility (mole fraction)

INSERT INTO measurements (chemical_string, outcome_measure, readout_value) VALUES
  ('CCC[C@@H]1CC(=O)N([C@@H](CC)C(N)=O)C1', 'solubility (mole fraction)', 0.000113);
